tested.on: T1, whole KDR-ECD (Cat. # 676490, Calbiochem) (human, UniProt P35968 20-764)
T1 construct: extracellular domain; Bought soluble protein; also called soluble KDR; VEGF Receptor 2 D1-7
assay.protocol: ELISA, KDR-ECD coat 5 ug/mL, antibody 1 ug/mL
quantity: ELISA reading

Assign ELISA reading to the following record: 22B8 (antibody, V domains shown, Fully human monoclonal antibody from a XenoMouse hybridoma (IgG2 or IgG4 strain), purified) VH: QLQLQESGPGLVKPSETLSLTCTVSGGSISSRYYYWGWVRQPPGKGLEWIGTIYYSGHTYYNPSLKTRVTISVDTSKNQFSLKLISVTAADTAVYYCATQQLVLYYFDFWGQGTLVTVSS VL: EIVLTQSPGTLSLSPGERAALSCRASQSISSSYLAWYQQRPGQAPRLLIYGASSRATGIPDRFNGSGSGTDFTLTISRLEPEDFAVYYCQQFGSSITFGQGTRLEIK
1.91

Assign ELISA reading to the following record: 21H6 (antibody, V domains shown, Fully human monoclonal antibody from a XenoMouse hybridoma, purified) VH: QVQLVESGGGLVKPGGSLRLSCAASGFTFSDYYMSWIRQAPGKGLEWVSYISNSGITIYYADSVKGRFTISRDNAKNSLYLQMNSLRAGDTAVYYCAREEWYSSRWYRNFDYWGQGTLVTVSS VL: DIQMTQFSSSLSASVGDRVTITCRASQSISRYLNWYQQKPGKAPKLLIYAASSLQSGVPSRFNGSGSGTDFTLTISSLQPEDFATYYCQQSYSAPLTFGGGTKVEIK
1.46

Assign ELISA reading to the following record: 33C3 (antibody, V domains shown, Fully human monoclonal antibody from a XenoMouse hybridoma (IgG2 or IgG4 strain), purified) VH: QVQLVESGGGLVKPGESLRLSCAASGFTFSDYYMSWIRQAPGKGLEWVSYISHGGSTIYYADSVKGRFTISRDNAKNSLYLQMNSLRVEDTAVYFCARDDFWSGYYFNWFDPWGQGALVTVSS VL: DIQMTQYPLSLSASVGDRVTITCRASQSISSFLNWYHQKPGKAPKLLIYGTSSLQSGVPSRFSGSGSGTDFTLTISSLQPEDFATYYCQQTYSIPLTFGGGTNVEIK
1.11

Assign ELISA reading to the following record: 29H3 (antibody, V domains shown, Fully human monoclonal antibody from a XenoMouse hybridoma (IgG2 or IgG4 strain), purified) VH: QVQLVQSGAEVKKPGASVKVSCKASGYTFTSYDINWVRQATGQGLEWMGWMNPNSGKTGYAQKFQGRVTMTRNTSINTAYMELSSLRSEDTAVYYCARGGYSNLGWFDPWGQGTLVTVSS VL: DIQMTQSPSSVSASVGDRVTITCRASQGISSWLVWYHQKPGKAPKLLIYGASSLQSGVPSRFSGSGSGTDFTLTISSLQPEDFATYYCQQANNFPFTFGPGTKVDIK
2.62

Assign ELISA reading to the following record: 33E1 (antibody, V domains shown, Fully human monoclonal antibody from a XenoMouse hybridoma (IgG2 or IgG4 strain), purified) VH: QVQLQESGPGLVKPSQTLSLTCTVSGGSISSGDHYWSWIRQHPGKGLEWIGHIYYSGSTDYNPSLKSRVTISVDTSKNHFSLKLNSVTAADTAVYYCARTNSSSWSDWYFDLWGRGTLVTVSS VL: DIVMTQSPDSLAVSLGERATINCKSSQSILYSSNNKNYLAWYQRKPGQPPILLIHWASTRESGVPDRFSGSGSRTDFTLTISSLQAEDVAVYYCQQYFITPWTFGQGTKVEIK
1.38

Assign ELISA reading to the following record: 32G7 (antibody, V domains shown, Fully human monoclonal antibody from a XenoMouse hybridoma (IgG2 or IgG4 strain), purified) VH: EVQLVESGGGLVKPGGSLRLSCAASGFTISSYSMNWVRQAPGKGLEWVSFISSRSNYIYYADSVKGRFTISRDNAKNSLYLQMNSLRAEDTAVYYCSKDDWFEELWGQGTLVTVSS VL: DIQMTQSPSSLSASVGDRVTITCRASQDIRNDLGWYQQKPGKAPKRLIYAASSLQSGVPSRFSGSGSGTEFTLTISSLQPEDFATYYCLQHNSFPWTFGQGTKVEIK
2.36
